# target_desc: STAT5a (Homo sapiens)
# Sequence (P42229 1-794): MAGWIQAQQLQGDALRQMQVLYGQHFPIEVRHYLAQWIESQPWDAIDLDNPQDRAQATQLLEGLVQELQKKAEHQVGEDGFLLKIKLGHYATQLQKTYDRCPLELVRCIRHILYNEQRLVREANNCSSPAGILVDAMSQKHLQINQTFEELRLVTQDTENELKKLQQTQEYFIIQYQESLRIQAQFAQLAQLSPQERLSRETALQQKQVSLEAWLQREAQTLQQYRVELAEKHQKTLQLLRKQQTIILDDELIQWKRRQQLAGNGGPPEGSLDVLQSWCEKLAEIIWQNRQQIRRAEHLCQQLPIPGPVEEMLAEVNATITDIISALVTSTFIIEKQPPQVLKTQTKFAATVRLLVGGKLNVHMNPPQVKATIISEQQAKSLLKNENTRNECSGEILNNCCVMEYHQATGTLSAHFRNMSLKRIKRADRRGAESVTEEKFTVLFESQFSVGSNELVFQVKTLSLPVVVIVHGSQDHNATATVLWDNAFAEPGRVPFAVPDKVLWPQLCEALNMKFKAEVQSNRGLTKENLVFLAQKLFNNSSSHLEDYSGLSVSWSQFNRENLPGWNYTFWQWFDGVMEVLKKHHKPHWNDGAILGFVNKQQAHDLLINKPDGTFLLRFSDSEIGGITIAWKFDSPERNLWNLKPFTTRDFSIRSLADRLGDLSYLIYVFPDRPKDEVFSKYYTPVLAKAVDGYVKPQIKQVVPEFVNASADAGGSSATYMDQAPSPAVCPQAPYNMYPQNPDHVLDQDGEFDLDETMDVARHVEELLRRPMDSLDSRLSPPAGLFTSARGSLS
# test_name: Fluorescence polarization (FP) binding assay, STAT5a
Could you mark each record true (1) if its Ki falls strictly under 20 µM, and false (0) if it equals or exceeds it?

{"columns": ["mol_smiles", "class_label"],
 "data": [
  ["COc1cc(-c2cc(OP(=O)(O)O)cc(-c3ccc(C(N)=O)cc3)c2)cc(OC)c1OC", "false (0)"],
  ["COc1cc(-c2cc(OP(=O)(O)O)cc(-c3ccc(Cl)c(F)c3)c2)cc(OC)c1OC", "true (1)"],
  ["COc1cc(-c2cc(OP(=O)(O)O)cc(-c3ccc(C(C)(C)C)cc3)c2)cc(OC)c1OC", "false (0)"],
  ["COc1cc(-c2cc(OP(=O)(O)O)cc(-c3ccc(C(=O)O)cc3)c2)cc(OC)c1OC", "true (1)"],
  ["CCOC(=O)c1ccc(-c2cc(OP(=O)(O)O)cc(-c3cc(OC)c(OC)c(OC)c3)c2)cc1", "false (0)"],
  ["COc1cc(-c2cc(OP(=O)(O)O)cc(-c3cc(Cl)c(Cl)c(Cl)c3)c2)cc(OC)c1OC", "true (1)"],
  ["COc1cc(-c2cc(OP(=O)(O)O)cc(-c3ccc(C(C)C)cc3)c2)cc(OC)c1OC", "false (0)"],
  ["COc1cc(-c2cc(OP(=O)(O)O)cc(-c3ccc(F)cc3)c2)cc(OC)c1OC", "false (0)"],
  ["COc1cc(-c2cc(OP(=O)(O)O)cc(-c3cc(F)c(F)c(F)c3)c2)cc(OC)c1OC", "true (1)"],
  ["COc1cc(-c2cc(OP(=O)(O)O)cc(-c3ccc(Cl)cc3)c2)cc(OC)c1OC", "false (0)"]
]}
